EXPERIMENTAL TARGET: 14-3-3β/CFTRpS753pS768 complex (Homo sapiens, UniProt P13569+P31946)
Construct: His6 (cleaved yes); made in house; peptide synthetic
Sequence (P31946 whole entry, one chain of several): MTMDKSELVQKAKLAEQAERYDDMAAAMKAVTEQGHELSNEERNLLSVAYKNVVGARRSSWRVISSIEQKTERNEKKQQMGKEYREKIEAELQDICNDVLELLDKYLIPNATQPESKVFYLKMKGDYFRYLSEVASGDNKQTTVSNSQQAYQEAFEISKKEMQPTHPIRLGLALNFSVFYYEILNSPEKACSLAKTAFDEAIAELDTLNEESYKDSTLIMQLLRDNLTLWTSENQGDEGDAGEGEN
MEASUREMENT PROTOCOL: Dose-response fluorescence polarization (FP) assay, compound titration
Assay type: binding
CONDITION SUMMARY: With 14-3-3; compound 1.95313e-6 M
TEST READOUT: FP signal
Simply state the number, no unit and no words.

[in] Please give the measured FP signal for this compound: CN1CC(=O)NC(CCCNC(=N)N)C(=O)NC(CCC(N)=O)C(=O)NC(CCCNC(=N)N)C(=O)NCc2ccccc2-c2cccc(c2)C1 (stereo not drawn)
[out] 6

[in] Please give the measured FP signal for this compound: N=C(N)NCCCC1NC(=O)C(CCCCN)NCc2ccccc2Sc2ccccc2CNC(=O)C(Cc2ccc(O)cc2)NC1=O (stereo not drawn)
[out] 6

[in] Please give the measured FP signal for this compound: CC1NC(=O)C(CCCNC(=N)N)NC(=O)C2CCCN2Cc2cccc(c2)-c2ccccc2CNC(=O)C(CCCNC(=N)N)NC1=O (stereo not drawn)
[out] 5

[in] Please give the measured FP signal for this compound: N=C(N)NCCCC1NC(=O)C(CCC(N)=O)NC(=O)C(CCCNC(=N)N)NC(=O)C2CCCN2Cc2cccc(c2)-c2ccccc2CNC1=O (stereo not drawn) [CY007458]
[out] 5

[in] Please give the measured FP signal for this compound: N=C(N)NCCCC1NCc2ccccc2Sc2ccccc2CNC(=O)C(Cc2ccc(O)cc2)NC(=O)C(CCCN)NC1=O (stereo not drawn)
[out] 6

[in] Please give the measured FP signal for this compound: NCCCCC1NCc2ccccc2Sc2ccccc2CNC(=O)C(Cc2cccc(Cl)c2)NC(=O)C(Cc2ccc(O)cc2)NC1=O (stereo not drawn)
[out] 5

[in] Please give the measured FP signal for this compound: NCCCC1NCc2ccccc2Sc2ccccc2CNC(=O)C(Cc2c[nH]c3ccccc23)NC(=O)C(Cc2ccccc2)NC1=O (stereo not drawn)
[out] 8

[in] Please give the measured FP signal for this compound: N=C(N)NCCCC1NC(=O)C(CCC(N)=O)NC(=O)C(CCCNC(=N)N)NC(=O)C2CCCN2Cc2cccc(c2)-c2ccccc2CNC1=O (stereo not drawn) [CY007455]
[out] 5

[in] Please give the measured FP signal for this compound: C=CC(C)(C)OC[C@H]1O[C@H](O[C@@H]2C3=C([C@H](C)COC(C)=O)C[C@H](O)[C@]3(C)/C=C3/[C@@H](COC)CC[C@H]3[C@@H](C)[C@H]2O)[C@H](O)[C@@H](OC(C)=O)[C@@H]1O [FC-A, fusicoccin A, reference compound]
[out] 6

###

EXPERIMENTAL TARGET: 14-3-3β/CFTRpS753pS768 complex (Homo sapiens, UniProt P13569+P31946)
Construct: His6 (cleaved yes); made in house; peptide synthetic
MEASUREMENT PROTOCOL: Dose-response fluorescence polarization (FP) assay, compound titration
Format: binding
CONDITION SUMMARY: With 14-3-3; compound 4.88281e-7 M
Exercise: for every item that follows, state its recorded FP signal.

[in] Please give the measured FP signal for this compound: N=C(N)NCCCC1NC(=O)C(CCC(N)=O)NC(=O)C(CCCNC(=N)N)NC(=O)C2CCCN2Cc2cccc(c2)-c2ccccc2CNC1=O (stereo not drawn) [CY007458]
[out] 6

[in] Please give the measured FP signal for this compound: CC1NC(=O)C(CCCNC(=N)N)NC(=O)C2CCCN2Cc2cccc(c2)-c2ccccc2CNC(=O)C(CCCNC(=N)N)NC1=O (stereo not drawn) [CY007476]
[out] 4

[in] Please give the measured FP signal for this compound: NCCCCC1NCc2ccccc2Sc2ccccc2CNC(=O)C(Cc2cccc(Cl)c2)NC(=O)C(Cc2ccc(O)cc2)NC1=O (stereo not drawn) [CY007288]
[out] 6

[in] Please give the measured FP signal for this compound: CN1CC(=O)NC(CCCNC(=N)N)C(=O)NC(CCC(N)=O)C(=O)NC(CCCNC(=N)N)C(=O)NCc2ccccc2-c2cccc(c2)C1 (stereo not drawn) [CY007491]
[out] 5

[in] Please give the measured FP signal for this compound: C=CC(C)(C)OC[C@H]1O[C@H](O[C@@H]2C3=C([C@H](C)COC(C)=O)C[C@H](O)[C@]3(C)/C=C3/[C@@H](COC)CC[C@H]3[C@@H](C)[C@H]2O)[C@H](O)[C@@H](OC(C)=O)[C@@H]1O [FC-A, fusicoccin A, reference compound]
[out] 4

[in] Please give the measured FP signal for this compound: N=C(N)NCCCC1NC(=O)C(CCC(N)=O)NC(=O)C(CCCNC(=N)N)NC(=O)C2CCCN2Cc2cccc(c2)-c2ccccc2CNC1=O (stereo not drawn) [CY007455]
[out] 4

###

Exercise: for every item that follows, state its recorded FP signal.
EXPERIMENTAL TARGET: 14-3-3β/CFTRpS753pS768 complex (Homo sapiens, UniProt P13569+P31946)
Construct: His6 (cleaved yes); made in house; peptide synthetic
MEASUREMENT PROTOCOL: Dose-response fluorescence polarization (FP) assay, compound titration
Type: binding
CONDITION SUMMARY: With 14-3-3; compound 0.000125 M
Simply state the number, no unit and no words.

[in] Please give the measured FP signal for this molecule: N=C(N)NCCCC1NC(=O)C(CCCCN)NCc2ccccc2Sc2ccccc2CNC(=O)C(Cc2ccc(O)cc2)NC1=O (stereo not drawn)
[out] 73

[in] Please give the measured FP signal for this molecule: N=C(N)NCCCC1NC(=O)C(CCC(N)=O)NC(=O)C(CCCNC(=N)N)NC(=O)C2CCCN2Cc2cccc(c2)-c2ccccc2CNC1=O (stereo not drawn) [CY007458]
[out] 124

[in] Please give the measured FP signal for this molecule: CN1CC(=O)NC(CCCNC(=N)N)C(=O)NC(CCC(N)=O)C(=O)NC(CCCNC(=N)N)C(=O)NCc2ccccc2-c2cccc(c2)C1 (stereo not drawn)
[out] 83

###

Exercise: for every item that follows, state its recorded FP signal.
EXPERIMENTAL TARGET: 14-3-3β/CFTRpS753pS768 complex (Homo sapiens, UniProt P13569+P31946)
Construct: His6 (cleaved yes); made in house; peptide synthetic
MEASUREMENT PROTOCOL: Dose-response fluorescence polarization (FP) assay, compound titration
Assay type: binding
CONDITION SUMMARY: With 14-3-3; compound 2.44141e-7 M
Simply state the number, no unit and no words.

[in] Please give the measured FP signal for this compound: CC1NC(=O)C(CCCNC(=N)N)NC(=O)C2CCCN2Cc2cccc(c2)-c2ccccc2CNC(=O)C(CCCNC(=N)N)NC1=O (stereo not drawn)
[out] 4

[in] Please give the measured FP signal for this compound: NCCCC1NCc2ccccc2Sc2ccccc2CNC(=O)C(Cc2c[nH]c3ccccc23)NC(=O)C(Cc2ccccc2)NC1=O (stereo not drawn)
[out] 5

[in] Please give the measured FP signal for this compound: CN1CC(=O)NC(CCCNC(=N)N)C(=O)NC(CCC(N)=O)C(=O)NC(CCCNC(=N)N)C(=O)NCc2ccccc2-c2cccc(c2)C1 (stereo not drawn)
[out] 6

[in] Please give the measured FP signal for this compound: C=CC(C)(C)OC[C@H]1O[C@H](O[C@@H]2C3=C([C@H](C)COC(C)=O)C[C@H](O)[C@]3(C)/C=C3/[C@@H](COC)CC[C@H]3[C@@H](C)[C@H]2O)[C@H](O)[C@@H](OC(C)=O)[C@@H]1O [FC-A, fusicoccin A, reference compound]
[out] 2

[in] Please give the measured FP signal for this compound: NCCCCC1NCc2ccccc2Sc2ccccc2CNC(=O)C(Cc2cccc(Cl)c2)NC(=O)C(Cc2ccc(O)cc2)NC1=O (stereo not drawn)
[out] 5

[in] Please give the measured FP signal for this compound: N=C(N)NCCCC1NC(=O)C(CCC(N)=O)NC(=O)C(CCCNC(=N)N)NC(=O)C2CCCN2Cc2cccc(c2)-c2ccccc2CNC1=O (stereo not drawn) [CY007455]
[out] 6

[in] Please give the measured FP signal for this compound: N=C(N)NCCCC1NCc2ccccc2Sc2ccccc2CNC(=O)C(Cc2ccc(O)cc2)NC(=O)C(CCCN)NC1=O (stereo not drawn)
[out] 7

[in] Please give the measured FP signal for this compound: N=C(N)NCCCC1NC(=O)C(CCC(N)=O)NC(=O)C(CCCNC(=N)N)NC(=O)C2CCCN2Cc2cccc(c2)-c2ccccc2CNC1=O (stereo not drawn) [CY007458]
[out] 5

[in] Please give the measured FP signal for this compound: N=C(N)NCCCC1NC(=O)C(CCCCN)NCc2ccccc2Sc2ccccc2CNC(=O)C(Cc2ccc(O)cc2)NC1=O (stereo not drawn)
[out] 4

###

EXPERIMENTAL TARGET: FITC-labeled CFTRpS753pS768 peptide (no 14-3-3) (Homo sapiens, UniProt P13569)
Construct: made in house; host or cells: synthetic peptide
Sequence (P13569 747-774 limits assumed): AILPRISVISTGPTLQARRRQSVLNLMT
MEASUREMENT PROTOCOL: Dose-response FP control assay in the absence of 14-3-3
Type: binding
CONDITION SUMMARY: No 14-3-3; compound 3.8147e-9 M
Method: The 14-3-3β concentration used for the FP screening assay was 10 μM (dashed line). c HTS FP assay of the Cyclenium library. The samples contain 100 nM of FITC-CFTR_pS753pS768 peptide, 10 μM 14-3-3β, and 50 μM compound. FC-A (100 µM) was added as a positive control and DMSO as the negative control. Hit compounds are defined as a polarization increase which is higher than 20% of the response of FC-A. Red squares are compounds that appeared positive in the negative control without 14-3-3. […]
Exercise: for every item that follows, state its recorded FP signal.
Simply state the number, no unit and no words.

[in] Requested read-out FP signal, target or system FITC-labeled CFTRpS753pS768 peptide (no 14-3-3) (Homo sapiens, UniProt P13569), entry N=C(N)NCCCC1NC(=O)C(CCC(N)=O)NC(=O)C(CCCNC(=N)N)NC(=O)C2CCCN2Cc2cccc(c2)-c2ccccc2CNC1=O (stereo not drawn) [CY007455]
[out] 4

[in] Requested read-out FP signal, target or system FITC-labeled CFTRpS753pS768 peptide (no 14-3-3) (Homo sapiens, UniProt P13569), entry N=C(N)NCCCC1NC(=O)C(CCCCN)NCc2ccccc2Sc2ccccc2CNC(=O)C(Cc2ccc(O)cc2)NC1=O (stereo not drawn)
[out] 4

[in] Requested read-out FP signal, target or system FITC-labeled CFTRpS753pS768 peptide (no 14-3-3) (Homo sapiens, UniProt P13569), entry C=CC(C)(C)OC[C@H]1O[C@H](O[C@@H]2C3=C([C@H](C)COC(C)=O)C[C@H](O)[C@]3(C)/C=C3/[C@@H](COC)CC[C@H]3[C@@H](C)[C@H]2O)[C@H](O)[C@@H](OC(C)=O)[C@@H]1O [FC-A, fusicoccin A, reference compound]
[out] 3

[in] Requested read-out FP signal, target or system FITC-labeled CFTRpS753pS768 peptide (no 14-3-3) (Homo sapiens, UniProt P13569), entry CC1NC(=O)C(CCCNC(=N)N)NC(=O)C2CCCN2Cc2cccc(c2)-c2ccccc2CNC(=O)C(CCCNC(=N)N)NC1=O (stereo not drawn)
[out] 5

[in] Requested read-out FP signal, target or system FITC-labeled CFTRpS753pS768 peptide (no 14-3-3) (Homo sapiens, UniProt P13569), entry NCCCCC1NCc2ccccc2Sc2ccccc2CNC(=O)C(Cc2cccc(Cl)c2)NC(=O)C(Cc2ccc(O)cc2)NC1=O (stereo not drawn)
[out] 4

[in] Requested read-out FP signal, target or system FITC-labeled CFTRpS753pS768 peptide (no 14-3-3) (Homo sapiens, UniProt P13569), entry N=C(N)NCCCC1NC(=O)C(CCC(N)=O)NC(=O)C(CCCNC(=N)N)NC(=O)C2CCCN2Cc2cccc(c2)-c2ccccc2CNC1=O (stereo not drawn) [CY007458]
[out] 5

[in] Requested read-out FP signal, target or system FITC-labeled CFTRpS753pS768 peptide (no 14-3-3) (Homo sapiens, UniProt P13569), entry NCCCC1NCc2ccccc2Sc2ccccc2CNC(=O)C(Cc2c[nH]c3ccccc23)NC(=O)C(Cc2ccccc2)NC1=O (stereo not drawn)
[out] 7

[in] Requested read-out FP signal, target or system FITC-labeled CFTRpS753pS768 peptide (no 14-3-3) (Homo sapiens, UniProt P13569), entry N=C(N)NCCCC1NCc2ccccc2Sc2ccccc2CNC(=O)C(Cc2ccc(O)cc2)NC(=O)C(CCCN)NC1=O (stereo not drawn)
[out] 7

[in] Requested read-out FP signal, target or system FITC-labeled CFTRpS753pS768 peptide (no 14-3-3) (Homo sapiens, UniProt P13569), entry CN1CC(=O)NC(CCCNC(=N)N)C(=O)NC(CCC(N)=O)C(=O)NC(CCCNC(=N)N)C(=O)NCc2ccccc2-c2cccc(c2)C1 (stereo not drawn)
[out] 6
